FACS binding data reference
MEASURED TARGET: Mutant CD33-GFP M9 (Y49, 50A) on 293FT cells (UniProt P20138)
Sequence (P20138 other isoform, or with tags, fused parts or gaps mutant): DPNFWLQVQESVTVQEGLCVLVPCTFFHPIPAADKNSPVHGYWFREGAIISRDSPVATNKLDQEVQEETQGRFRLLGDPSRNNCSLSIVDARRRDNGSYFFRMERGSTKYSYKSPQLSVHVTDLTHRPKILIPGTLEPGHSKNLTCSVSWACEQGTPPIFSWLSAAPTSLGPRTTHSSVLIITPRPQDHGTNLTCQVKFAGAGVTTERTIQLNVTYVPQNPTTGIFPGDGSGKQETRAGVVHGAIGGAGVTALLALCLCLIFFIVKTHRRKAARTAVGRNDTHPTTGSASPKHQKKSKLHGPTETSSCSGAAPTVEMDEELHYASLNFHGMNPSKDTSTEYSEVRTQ
MEASUREMENT PROTOCOL: FACS, mutant CD33-GFP on 293FT cells

# BINDER, FACS binding data
records = [
    ("sdCD33_10 (VHH) VHH: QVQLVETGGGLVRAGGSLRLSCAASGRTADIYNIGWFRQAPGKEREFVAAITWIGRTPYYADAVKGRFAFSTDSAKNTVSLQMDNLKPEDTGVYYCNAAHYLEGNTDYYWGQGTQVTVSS", 0.22),
    ("sdCD33_11 (VHH, sdAb from a naive llama phage library; also called 430; sdAb430) VHH: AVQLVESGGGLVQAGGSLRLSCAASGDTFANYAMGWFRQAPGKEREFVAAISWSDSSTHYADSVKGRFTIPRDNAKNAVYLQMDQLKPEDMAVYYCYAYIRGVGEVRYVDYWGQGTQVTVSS", 1.01),
    ("sdCD33_8 (VHH, sdAb from a naive llama phage library; also called 424; sdAb424) VHH: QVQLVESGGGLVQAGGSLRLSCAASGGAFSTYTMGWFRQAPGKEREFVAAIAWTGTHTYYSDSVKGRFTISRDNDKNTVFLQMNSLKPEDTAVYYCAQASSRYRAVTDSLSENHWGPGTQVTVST", 0.23),
    ("sdCD33_3 (VHH) VHH: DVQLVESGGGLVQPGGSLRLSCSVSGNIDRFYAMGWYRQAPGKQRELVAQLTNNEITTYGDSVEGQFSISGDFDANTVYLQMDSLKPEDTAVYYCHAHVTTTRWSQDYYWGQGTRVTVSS", 0.64),
]
